Hello, the source for this data is ChEMBL document CHEMBL2203136, in case you need it.

System: Candida albicans
Experiment: Antifungal activity against Candida albicans MTCC 183 after 72 hrs by serial dilution method
Type: functional
Settings: Candida albicans, MTCC 183, 72 h
recorded-metric: log10 of MIC (log10 of the value in µM)

>>> recorded_value("c1ccc(C2Sc3ccccc3N=C3c4ccccc4C(c4ccccc4)C32)cc1 (stereo unspecified)")
1.79
>>> recorded_value("COc1ccc(C2Sc3cc(Cl)ccc3N=C3c4ccccc4C(c4ccccc4)C32)cc1 (stereo unspecified)")
1.12
>>> recorded_value("COc1ccc2c(c1)SC(c1ccc(Cl)cc1)C1C(=N2)c2ccccc2C1c1ccccc1 (stereo unspecified)")
0.84
>>> recorded_value("Clc1ccc(C2Sc3ccccc3N=C3c4ccccc4C(c4ccccc4)C32)cc1 (stereo unspecified)")
2.06
>>> recorded_value("OC(Cn1cncn1)(Cn1cncn1)c1ccc(F)cc1F [FLUCONAZOLE]")
1.00
>>> recorded_value("COc1ccc2c(c1)SC(c1ccc(C)cc1)C1C(=N2)c2ccccc2C1c1ccccc1 (stereo unspecified)")
1.45
>>> recorded_value("Clc1ccc(C2Sc3cc(Cl)ccc3N=C3c4ccccc4C(c4ccccc4)C32)cc1 (stereo unspecified)")
1.12
>>> recorded_value("Clc1ccc2c(c1)SC(c1ccccc1)C1C(=N2)c2ccccc2C1c1ccccc1 (stereo unspecified)")
1.45
>>> recorded_value("COc1ccc2c(c1)SC(c1ccccc1)C1C(=N2)c2ccccc2C1c1ccccc1 (stereo unspecified)")
2.06
>>> recorded_value("COc1ccc(C2Sc3cc(C)ccc3N=C3c4ccccc4C(c4ccccc4)C32)cc1 (stereo unspecified)")
2.05
>>> recorded_value("COc1ccc(C2Sc3cc(OC)ccc3N=C3c4ccccc4C(c4ccccc4)C32)cc1 (stereo unspecified)")
1.13
>>> recorded_value("Cc1ccc(C2Sc3cc(C)ccc3N=C3c4ccccc4C(c4ccccc4)C32)cc1 (stereo unspecified)")
2.06
>>> recorded_value("COc1ccc(C2Sc3ccccc3N=C3c4ccccc4C(c4ccccc4)C32)cc1 (stereo unspecified)")
2.06
>>> recorded_value("Cc1ccc2c(c1)SC(c1ccc(Cl)cc1)C1C(=N2)c2ccccc2C1c1ccccc1 (stereo unspecified)")
1.74
>>> recorded_value("Cc1ccc2c(c1)SC(c1ccccc1)C1C(=N2)c2ccccc2C1c1ccccc1 (stereo unspecified)")
1.78
>>> recorded_value("Cc1ccc(C2Sc3cc(Cl)ccc3N=C3c4ccccc4C(c4ccccc4)C32)cc1 (stereo unspecified)")
1.44
